# Test system: P. falciparum 3D7 parasites
# ASSAY COMMENT: P. falciparum 3D7 asexual stage LDH assay (72 h)
# Type: cell-based, Plasmodium falciparum
# MEASUREMENT CONDITIONS: Plasmodium falciparum, 3D7, 72 h, read-out: Pf 3D7 EC50 (SD), LDH activity of P. falciparum 3D7 parasites over 72 h; means and SDs, three or more experiments
MEASURED ATTRIBUTE: EC50 (nM)
Field format: number, assumed nM, no unit text.

# SMILES NOTATION, TARGET OR SYSTEM, EC50 / nM
data = [
    ("CC(C)CN(Cc1ccc(C(=O)NC2CC2)cc1)C1CC1", "P. falciparum 3D7 parasites", 540),
]

Now look at this entry.
Name the recorded EC50 of the compound listed here: O=C(NC1CCCC1)c1ccc(CN(Cc2ccc(Cl)cc2Cl)C2CC2)cc1
1200

---

# ASSAY COMMENT: Human HepG2 growth inhibition assay (Cell TitreGlo, 48 h)
# Assay type: cell-based
# MEASUREMENT CONDITIONS: human, HepG2 cells, HepG2 cell growth inhibition over 48 h
MEASURED ATTRIBUTE: CC50 at 48 h

# SMILES NOTATION, CC50 at 48 h
measured = [
    ("O=C(NC1CC1)c1ccc(CN(Cc2ccc(F)cc2)C2CC2)cc1", "> 40 µM"),
    ("CCCN(Cc1ccc(C(=O)NC2CC2)cc1)Cc1cc(C(F)(F)F)cc(C(F)(F)F)c1", "10 µM"),
]

Name the recorded CC50 at 48 h of the compound listed here: N#Cc1ccc(CN(Cc2ccc(C(=O)NC3CC3)cc2)C2CC2)cc1
> 40 µM

Name the recorded CC50 at 48 h of the compound listed here: O=C(NC1CC1)c1ccc(CN(Cc2ccccc2)C2CCC2)cc1
> 40 µM

Name the recorded CC50 at 48 h of the compound listed here: Cc1cccc(CN(Cc2ccc(C(=O)NC3CC3)cc2)C2CC2)c1
> 40 µM

---

As shown below, each of these compounds has a reported hepatocyte CLint at 1 μM value.
# ASSAY COMMENT: Rat hepatocyte stability
# Assay type: in vitro ADME
# MEASUREMENT CONDITIONS: pooled rat hepatocytes

# SMILES NOTATION, MEASURED ATTRIBUTE, MEASURED RESULT
rows = [
    ("O=C(NC1CC1)c1ccc(CN(Cc2ccccc2)C2CC2)cc1", "hepatocyte CLint at 1 μM", "> 92 µL/min/1e6 cells"),
    ("O=C(NC1CC1)c1ccc(CN(Cc2ccccc2)CC(F)(F)F)cc1", "hepatocyte CLint at 1 μM", "> 92 µL/min/1e6 cells"),
]

Now look at this entry.
Name the recorded hepatocyte CLint at 1 μM of the compound listed here: O=C(NC1CC1)c1ccc(CN(Cc2ccccc2)C2CCC2)cc1
> 92 µL/min/1e6 cells

---

As shown below, each of these compounds has a reported solubility at 2 h value.
# ASSAY COMMENT: Aqueous solubility (kinetic in PBS, pH 7.4)
# Assay type: physicochemical
# MEASUREMENT CONDITIONS: phosphate buffered saline
Field format: number, assumed µM, no unit text.

Some compounds with known solubility at 2 h results, for comparison:
# COMPOUND, SCALE UNIT, solubility at 2 h
rows = [
    ("CCCN(Cc1ccc(C(=O)NC2CC2)cc1)Cc1cc(C(F)(F)F)cc(C(F)(F)F)c1", "µM", 2.5),
    ("CC(c1ccccc1)N(Cc1ccc(C(=O)NC2CC2)cc1)C1CC1 (centres unmarked)", "µM", 22),
    ("CCCN(Cc1ccccc1)Cc1ccc(C(=O)NC2CC2)cc1", "µM", 83),
    ("CC(C)N(Cc1ccccc1)Cc1ccc(C(=O)NC2CC2)cc1", "µM", 140),
]

Name the recorded solubility at 2 h of the compound listed here: CCCN(Cc1ccc(C(=O)NC2CC2)cc1)Cc1ccc(C(F)(F)F)cc1
15

From: paper PMC11609934
